biological target: Disintegrin and metalloproteinase domain-containing protein 17 (Homo sapiens, UniProt P78536); assay: Inhibition of TACE
Sequence (P78536 whole entry, the tested form may be a part): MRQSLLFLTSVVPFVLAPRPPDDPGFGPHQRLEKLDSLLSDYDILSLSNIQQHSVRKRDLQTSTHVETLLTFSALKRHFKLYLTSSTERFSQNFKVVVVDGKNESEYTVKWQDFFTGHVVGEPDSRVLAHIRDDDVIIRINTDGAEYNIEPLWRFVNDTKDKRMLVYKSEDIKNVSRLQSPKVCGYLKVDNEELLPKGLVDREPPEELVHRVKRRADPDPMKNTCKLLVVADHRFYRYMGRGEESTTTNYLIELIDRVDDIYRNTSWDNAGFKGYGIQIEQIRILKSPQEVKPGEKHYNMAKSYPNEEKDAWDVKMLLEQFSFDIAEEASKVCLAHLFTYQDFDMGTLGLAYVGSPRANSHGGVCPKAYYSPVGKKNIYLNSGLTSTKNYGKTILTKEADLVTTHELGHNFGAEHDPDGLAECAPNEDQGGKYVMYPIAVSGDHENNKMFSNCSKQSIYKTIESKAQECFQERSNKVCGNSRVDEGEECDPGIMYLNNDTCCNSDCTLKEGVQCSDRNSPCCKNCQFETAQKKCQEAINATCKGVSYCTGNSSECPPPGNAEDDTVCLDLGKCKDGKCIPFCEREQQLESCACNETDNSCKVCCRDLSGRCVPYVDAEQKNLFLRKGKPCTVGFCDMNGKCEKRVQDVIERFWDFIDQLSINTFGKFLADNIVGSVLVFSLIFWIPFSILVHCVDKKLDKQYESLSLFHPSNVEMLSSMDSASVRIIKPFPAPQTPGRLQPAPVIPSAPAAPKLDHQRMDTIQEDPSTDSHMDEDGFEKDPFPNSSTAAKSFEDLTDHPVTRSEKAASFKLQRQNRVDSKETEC
pIC50: −log10 of the molar value.
Form field: pIC50 (one value per entry).
Quantity kind: pIC50

- Compound: "C[C@H](C(=O)NO)N1CC[C@@](C)(c2ccc(OCc3cc(C(F)(F)F)cc(C(F)(F)F)c3)cc2)C1=O"
  Quantity kind: "pIC50"
  Reported measurement: 8.70
- Compound: "CC1(C)SCCN(S(=O)(=O)c2ccc(Oc3ccncc3)cc2)[C@H]1C(=O)NO"
  Quantity kind: "pIC50"
  Reported measurement: 7.66
- Compound: "C[C@H](C(=O)NO)N1CC[C@@](C)(c2ccc(OCc3ccccc3)cc2)C1=O"
  Quantity kind: "pIC50"
  Reported measurement: 8.40
- Compound: "CC#CCOc1ccc([S+]([O-])C(CCCCCC)C(=O)NO)cc1 (stereo not given)"
  Quantity kind: "pIC50"
  Reported measurement: 8.40
- Compound: "C[C@H](C(=O)NO)N1CC[C@@](C)(c2ccc(-c3ccccc3)cc2)C1=O"
  Quantity kind: "pIC50"
  Reported measurement: 4.89
